- Test system: Echinochloa crus-galli (ECHCG)
- experiment: Glasshouse assay for herbicidal activity (pre- and post-emergence), percentage phytotoxicity
- Assay type: in vivo
- setup_conditions: Echinochloa crus-galli, post-emergence, 360 h, Rate 250 g/ha; post-emergence; visual assessment 15 DAA; 100%=total damage, 0%=no damage; read-out: Post-emergence herbicidal activity (percentage phytotoxicity) ECHCG POST
readout_name: pest or weed control at 250 g/ha (%)
Answers are plain numbers, in %.

# example entries with known answers
| compound | pest or weed control at 250 g/ha [%] |
| --- | --- |
| C=CC(C)NC(=O)CC1CC(=O)C(c2c(C)cc(-c3ncc(Cl)cn3)cc2C)C1=O (centres unmarked) [Compound B345] | 100 |
| COCC(C)(C)NC(=O)CC1CC(=O)C(c2c(C)cc(-c3ccc(Cl)cn3)cc2C)C1=O (centres unmarked) [Compound B364] | 90 |
| CCN(C)C(=O)CC1CC(=O)C(c2c(C)cc(-c3ccc(Cl)cn3)cc2C)C1=O (centres unmarked) [Compound B367] | 100 |

Record pest or weed control at 250 g/ha per entry; entries follow.
1. Cc1cc(-c2ccc(F)cc2)cc(C)c1C1C(=O)CC(CC(=O)NC(C)(C)C#N)C1=O (centres unmarked) [Compound B377]
2. Cc1cc(-c2ccc(Cl)cn2)cc(C)c1C1C(=O)CC(CC(=O)NCC2CC2)C1=O (centres unmarked) [Compound B362]
3. C#CC(C)(C)NC(=O)CC1CC(=O)C(c2c(C)cc(-c3ncc(Cl)cn3)cc2C)C1=O (centres unmarked) [Compound B343]
4. Cc1cc(-c2ncc(Cl)cn2)cc(C)c1C1C(=O)CC(CC(=O)N(C)Cc2cccc(F)c2)C1=O (centres unmarked) [Compound B338]
5. Cc1cc(-c2ccc(Cl)cn2)cc(C)c1C1C(=O)CC(CC(=O)NCc2cccc(Br)c2)C1=O (centres unmarked) [Compound B359]

Result:
90
100
100
100
100

----------
- System: Lolium perenne (LOLPE)
- experiment: Glasshouse assay for herbicidal activity (pre- and post-emergence), percentage phytotoxicity
- Assay type: in vivo
- setup_conditions: Lolium perenne, pre-emergence, 480 h, 250 g/ha; pre-emergence; 20 DAA; visual assessment (100%=total damage, 0%=no damage); read-out: Pre-emergence herbicidal activity (percentage phytotoxicity) LOLPE PRE
- Procedure: Test—Glasshouse Assay for Herbicidal Activity Seeds of a variety of monocotyledonous and dicotyledonous test plants are sown in standard soil in pots. The plants are cultivated for one day (for pre-emergence (PRE)) or for about 12 days (for post-emergence (POST)) under controlled conditions in a glasshouse (warm climate species at 24/18° C., cool climate species at 20/16° C., both at day/night; 16 hours light; 65% humidity). […]
Returns Satisfied if the recorded pest or weed control at 250 g/ha is greater than or equal to 80%, and Not satisfied otherwise.

Example results:
| compound | study_target | assigned_label |
| --- | --- | --- |
| Cc1cc(C)c(C2C(=O)CC(CC(=O)NCc3ccc(C(F)(F)F)cc3)C2=O)c(C)c1 (stereo not drawn) | Lolium perenne (LOLPE) | Satisfied |
| C=CCNC(=O)CC1CC(=O)C(c2c(C)cc(-c3ncc(F)cn3)cc2C)C1=O (stereo not drawn) | Lolium perenne (LOLPE) | Satisfied |

Task: Check the entry Cc1cc(C)c(C2C(=O)CC(CC(=O)Nc3ccccn3)C2=O)c(C)c1 (stereo not drawn) : does pest or weed control at 250 g/ha equal or exceed 80%?
Result: Not satisfied

Task: Check the entry Cc1cc(-c2ncc(Cl)cc2F)cc(C)c1C1C(=O)CC(CC(=O)N2CCOCC2)C1=O (stereo not drawn) : does pest or weed control at 250 g/ha equal or exceed 80%?
Result: Satisfied

Task: Check the entry Cc1cc(-c2ncc(F)cc2F)cc(C)c1C1C(=O)CC(CC(=O)NCc2cccc(Br)c2)C1=O (stereo not drawn) : does pest or weed control at 250 g/ha equal or exceed 80%?
Result: Satisfied

Task: Check the entry CCc1cccc(C)c1C1C(=O)CC(CC(=O)NC(C)(C)C)C1=O (stereo not drawn) : does pest or weed control at 250 g/ha equal or exceed 80%?
Result: Satisfied

Task: Check the entry Cc1cc(C)c(C2C(=O)CC(CC(=O)Nc3ccc(C#N)cc3)C2=O)c(C)c1 (stereo not drawn) : does pest or weed control at 250 g/ha equal or exceed 80%?
Result: Not satisfied

Task: Check the entry Cc1cc(C)c(C2C(=O)CC(CC(=O)NC(C#N)C3CC3)C2=O)c(C)c1 (stereo not drawn) : does pest or weed control at 250 g/ha equal or exceed 80%?
Result: Not satisfied

Task: Check the entry Cc1cc(-n2ncc(Cl)c2C)cc(C)c1C1C(=O)CC(CC(=O)NC(C)(C)C)C1=O (stereo not drawn) : does pest or weed control at 250 g/ha equal or exceed 80%?
Result: Not satisfied

Task: Check the entry Cc1ccc(CNC(=O)CC2CC(=O)C(c3c(C)cc(C)cc3C)C2=O)cc1 (stereo not drawn) : does pest or weed control at 250 g/ha equal or exceed 80%?
Result: Satisfied

----------
Provide the reported pest or weed control at 250 g/ha of each item.
- Test system: Lolium perenne (LOLPE)
- experiment: Glasshouse assay for herbicidal activity (pre- and post-emergence), percentage phytotoxicity
- Type: in vivo
- setup_conditions: Lolium perenne, post-emergence, 360 h, 250 g/ha; post-emergence; 15 DAA; visual assessment (100%=total damage, 0%=no damage); read-out: Post-emergence herbicidal activity (percentage phytotoxicity) LOLPE POST
Give bare numbers, in %.

# example entries with known answers
| compound | endpoint_unit | pest or weed control at 250 g/ha |
| --- | --- | --- |
| Cc1cc(C)c(C2C(=O)CC(CC(=O)NCC(F)F)C2=O)c(C)c1 (stereo not drawn) | % | 80 |
| Cc1cc(C)c(C2C(=O)CC(CC(=O)NC3(C(F)(F)F)CC3)C2=O)c(C)c1 (stereo not drawn) | % | 80 |

Task: Given the entry Cc1cc(C)c(C2C(=O)CC(CC(=O)NC(C)(C)C#N)C2=O)c(C)c1 (stereo not drawn) , report its measured pest or weed control at 250 g/ha.
Result: 80

----------
Provide the reported Post-emergence Crop Selectivity, percentage phytotoxicity, Wheat − CQC of each item.
- System: Winter Wheat variety 'Hereward'
- experiment: Glasshouse assay for crop safety, post-emergence, +/- safener cloquintocet-mexyl (CQC), percentage phytotoxicity
- Type: in vivo
- setup_conditions: 250 g/ha, without safener cloquintocet-mexyl (CQC), evaluated after 13 days, 100=total damage, 0=no damage
- Experimental: Test—Glasshouse Assay for Crop Safety. […] The test plants were then grown in a glasshouse under controlled conditions (at 24/16° C., day/night; 14 hours light; 65% humidity) and watered twice daily. After 13 days for pre and post-emergence, the test was evaluated (100=total damage to plant; 0=no damage to plant).
Numbers only, in %.

| molecule | endpoint_unit | data_value |
| --- | --- | --- |
| Cc1cc(-c2ncc(F)cn2)cc(C)c1C1C(=O)CC(CC(=O)NCc2cccc(C(F)(F)F)c2)C1=O (centres unmarked) [Compound A145] | % | 60 |

Record Post-emergence Crop Selectivity, percentage phytotoxicity, Wheat − CQC per entry; entries follow.
1. Cc1cc(C)c(C2C(=O)CC(CC(=O)NC3CC3)C2=O)c(C)c1 (centres unmarked) [Compound A15]
2. Cc1cc(C)c(C2C(=O)CC(CC(=O)NC3(c4ccccn4)CC3)C2=O)c(C)c1 (centres unmarked) [Compound A18]
3. Cc1cc(C)c(C2C(=O)CC(CC(=O)NC(C)C)C2=O)c(C)c1 (centres unmarked) [Compound A7]
4. COCC(C)NC(=O)CC1CC(=O)C(c2c(C)cc(C)cc2C)C1=O (centres unmarked) [Compound A16]

Result:
[20, 70, 30, 80]

----------
- Tested on: Lolium perenne (LOLPE)
- experiment: Glasshouse assay for herbicidal activity (pre- and post-emergence), percentage phytotoxicity
- Type: in vivo
- setup_conditions: Lolium perenne, post-emergence, 360 h, 250 g/ha; post-emergence; 15 DAA; visual assessment (100%=total damage, 0%=no damage); read-out: Post-emergence herbicidal activity (percentage phytotoxicity) LOLPE POST
Returns: string. Value is Satisfied if measured pest or weed control at 250 g/ha is below 90%, and Not satisfied if it is greater than or equal to it.

| molecule | assigned_label |
| --- | --- |
| Cc1cc(C)c(C2C(=O)CC(CC(=O)NCc3ccccc3C(F)(F)F)C2=O)c(C)c1 (stereo not shown) | Satisfied |
| Cc1cc(-c2ncc(Cl)cc2F)cc(C)c1C1C(=O)CC(CC(=O)NCC2CC2)C1=O (stereo not shown) | Not satisfied |
| Cc1cc(-c2ncc(Cl)cc2F)cc(C)c1C1C(=O)CC(CC(=O)NCC(C)C)C1=O (stereo not shown) | Not satisfied |

Task: For this molecule, is pest or weed control at 250 g/ha lower than 90%? Cc1cc(-c2ncc(F)cc2F)cc(C)c1C1C(=O)CC(CC(=O)NCC2CC2(Cl)Cl)C1=O (stereo not shown)
Result: Not satisfied
